Please respond with reported pIC50 for every item in the list.
target_desc: human TRPV4 (Homo sapiens, UniProt Q9HBA0)
Construct: host or cells: tetracycline-inducible Flp-In T-REx 293 cells
Sequence (Q9HBA0 whole entry): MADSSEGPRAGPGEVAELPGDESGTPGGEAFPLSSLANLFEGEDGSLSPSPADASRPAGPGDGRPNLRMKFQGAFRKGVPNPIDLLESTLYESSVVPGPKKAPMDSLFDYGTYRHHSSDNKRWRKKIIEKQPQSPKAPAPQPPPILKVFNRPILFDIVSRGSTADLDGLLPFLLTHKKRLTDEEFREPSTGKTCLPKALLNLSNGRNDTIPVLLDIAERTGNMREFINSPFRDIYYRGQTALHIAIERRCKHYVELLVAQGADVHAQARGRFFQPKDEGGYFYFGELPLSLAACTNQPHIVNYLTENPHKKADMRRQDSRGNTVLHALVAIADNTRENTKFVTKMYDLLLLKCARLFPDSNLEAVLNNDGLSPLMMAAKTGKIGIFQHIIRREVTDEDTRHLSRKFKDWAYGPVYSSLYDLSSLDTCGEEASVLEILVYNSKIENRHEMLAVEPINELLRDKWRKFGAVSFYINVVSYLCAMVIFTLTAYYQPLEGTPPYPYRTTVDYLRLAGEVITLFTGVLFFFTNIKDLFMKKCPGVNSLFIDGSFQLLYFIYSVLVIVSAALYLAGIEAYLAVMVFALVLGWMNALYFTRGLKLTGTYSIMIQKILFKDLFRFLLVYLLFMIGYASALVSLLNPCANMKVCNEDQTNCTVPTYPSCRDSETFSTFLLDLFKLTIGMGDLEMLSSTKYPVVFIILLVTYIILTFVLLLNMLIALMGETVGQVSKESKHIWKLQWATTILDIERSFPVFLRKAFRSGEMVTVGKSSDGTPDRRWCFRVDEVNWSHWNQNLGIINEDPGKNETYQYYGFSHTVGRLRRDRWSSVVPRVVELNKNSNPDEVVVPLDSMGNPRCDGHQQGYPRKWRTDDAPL
method: Hypotonicity-induced Ca2+ influx (Fluo-4, FDSS)
Format: cell-based
condition_notes: Flp-In T-REx 293 cells expressing human TRPV4, examples listed under heading 'Human IC50<50 nM'
pIC50: −log10 of the molar value.

Entry O=C([C@H](O)c1cccc(-c2cc(F)cc(Cl)c2)c1)N1CCc2nc(C3(c4cccc(Cl)c4)CC3)[nH]c(=O)c2C1 [45-9] : pIC50 on human TRPV4 (Homo sapiens, UniProt Q9HBA0) = > 7.30

Entry O=C([C@H](O)c1cccc(-c2cccc(OC(F)(F)F)c2)c1)N1CCCc2nc(C3(c4cccc(Cl)c4)CC3)[nH]c(=O)c2C1 [50-3] : pIC50 on human TRPV4 (Homo sapiens, UniProt Q9HBA0) = > 7.30

Entry CC(C)(C)c1cccc(-c2cccc([C@@H](O)C(=O)N3CCCc4nc(C5(c6cccc(C7CCCCC7)c6)CC5)[nH]c(=O)c4C3)c2)c1 [52-5] : pIC50 on human TRPV4 (Homo sapiens, UniProt Q9HBA0) = > 7.30

Entry O=C(Cc1cccc(-c2cccc(C(F)(F)F)c2)c1)N1CCc2nc(C3(c4cccc(Cl)c4)CC3)[nH]c(=O)c2C1 [14-122] : pIC50 on human TRPV4 (Homo sapiens, UniProt Q9HBA0) = > 7.30

Entry O=C(C(O)c1cccc(Br)c1)N1CCCc2nc(C3(c4ccccc4)CC3)[nH]c(=O)c2C1 (stereo not drawn) [17-55] : pIC50 on human TRPV4 (Homo sapiens, UniProt Q9HBA0) = > 7.30

Entry O=C(C(O)c1cccc(-c2ccc(OC(F)(F)F)cc2)c1)N1CCc2nc(C3(c4ccccc4)CC3)[nH]c(=O)c2C1 (stereo not drawn) [44-24] : pIC50 on human TRPV4 (Homo sapiens, UniProt Q9HBA0) = > 7.30

Entry O=C([C@H](O)c1cccc(Cl)c1)N1CCCc2nc(C3(c4cccc(Cl)c4)CC3)[nH]c(=O)c2C1 [17-29] : pIC50 on human TRPV4 (Homo sapiens, UniProt Q9HBA0) = > 7.30

Entry O=C([C@H](O)c1cccc(-c2coc3ccccc23)c1)N1CCCc2nc(C3(c4ccccc4)CC3)[nH]c(=O)c2C1 [49-46] : pIC50 on human TRPV4 (Homo sapiens, UniProt Q9HBA0) = > 7.30

Entry O=C([C@H](O)c1cccc(C(F)(F)F)c1)N1CCc2nc(C3(c4cncc(C5CCC(F)(F)CC5)c4)CC3)[nH]c(=O)c2C1 [28-4] : pIC50 on human TRPV4 (Homo sapiens, UniProt Q9HBA0) = > 7.30

Entry CC(C)(C)c1cccc(C(O)C(=O)N2CCCc3nc(C4(c5cncc(-c6ccccc6)c5)CC4)[nH]c(=O)c3C2)c1 (stereo not drawn) [19-5] : pIC50 on human TRPV4 (Homo sapiens, UniProt Q9HBA0) = > 7.30

Entry CC(C)Oc1cccc(-c2cccc([C@@H](O)C(=O)N3CCc4nc(C5(c6ccccc6)CC5)[nH]c(=O)c4C3)c2)c1 [44-104] : pIC50 on human TRPV4 (Homo sapiens, UniProt Q9HBA0) = > 7.30

Entry CC(C)c1csc(C2(c3nc4c(c(=O)[nH]3)CN(C(=O)Cc3cccc(-c5cccc(C(F)(F)F)c5)c3)CCC4)CC2)c1 [18-29] : pIC50 on human TRPV4 (Homo sapiens, UniProt Q9HBA0) = > 7.30

Entry CCc1csc(C2(c3nc4c(c(=O)[nH]3)CN(C(=O)[C@H](O)c3cccc(C(F)(F)F)c3)CC4)CC2)c1 [15-5] : pIC50 on human TRPV4 (Homo sapiens, UniProt Q9HBA0) = > 7.30

Entry COCCOc1cccc(-c2cccc(C3(c4nc5c(c(=O)[nH]4)CN(C(=O)[C@H](O)c4cccc(Cl)c4)CCC5)CC3)c2)c1 [40-22] : pIC50 on human TRPV4 (Homo sapiens, UniProt Q9HBA0) = > 7.30

Entry O=C([C@H](O)c1cccc(C(F)(F)F)c1)N1CCCc2nc(C3(c4cccc(OC(F)(F)F)c4)CC3)[nH]c(=O)c2C1 [17-6] : pIC50 on human TRPV4 (Homo sapiens, UniProt Q9HBA0) = > 7.30

Entry CC(C)(C)c1cccc(C(O)C(=O)N2CCCc3nc(C4(c5cccc(F)c5)CC4)[nH]c(=O)c3C2)c1 (stereo not drawn) [17-21] : pIC50 on human TRPV4 (Homo sapiens, UniProt Q9HBA0) = > 7.30

Entry CC(C)c1cncc(C2(c3nc4c(c(=O)[nH]3)CN(C(=O)C(F)(F)c3cccc(Cl)c3F)CCC4)CC2)c1 [22-8] : pIC50 on human TRPV4 (Homo sapiens, UniProt Q9HBA0) = > 7.30

Entry CC(C)c1cccc(C2(c3nc4c(c(=O)[nH]3)CN(C(=O)C(O)c3cccc(-c5cccc(C(F)(F)F)c5)c3)CCC4)CC2)c1 (stereo not drawn) [17-45] : pIC50 on human TRPV4 (Homo sapiens, UniProt Q9HBA0) = > 7.30

Entry CC(C)c1csc(C2(c3nc4c(c(=O)[nH]3)CN(C(=O)C(F)(F)c3cccc(C(F)(F)F)c3)CC4)CC2)c1 [21-5] : pIC50 on human TRPV4 (Homo sapiens, UniProt Q9HBA0) = > 7.30

Entry O=C(C(O)c1cccc(SC(F)(F)F)c1)N1CCCc2nc(C3(c4cccs4)CC3)[nH]c(=O)c2C1 (stereo not drawn) [18-6] : pIC50 on human TRPV4 (Homo sapiens, UniProt Q9HBA0) = > 7.30

Entry O=C([C@H](O)c1cccc(-c2cc(C(F)(F)F)cc(C(F)(F)F)c2)c1)N1CCCc2nc(C3(c4ccccc4)CC3)[nH]c(=O)c2C1 [49-32] : pIC50 on human TRPV4 (Homo sapiens, UniProt Q9HBA0) = > 7.30

Entry N#Cc1ccc(-c2cccc(C3(c4nc5c(c(=O)[nH]4)CN(C(=O)[C@H](O)c4cccc(C(F)(F)F)c4)CCC5)CC3)c2)cc1F [42-67] : pIC50 on human TRPV4 (Homo sapiens, UniProt Q9HBA0) = > 7.30

Entry O=C([C@H](O)c1cccc(-c2cccc(F)c2)c1)N1CCCc2nc(C3(c4cccc(Cl)c4)CC3)[nH]c(=O)c2C1 [50-6] : pIC50 on human TRPV4 (Homo sapiens, UniProt Q9HBA0) = > 7.30

Entry O=C(Cc1cccc(-c2ccc(Cl)cc2)c1)N1CCCc2nc(C3(c4ccccc4)CC3)[nH]c(=O)c2C1 [17-135] : pIC50 on human TRPV4 (Homo sapiens, UniProt Q9HBA0) = > 7.30

Entry CC(C)N(C(=O)c1csc(C2(c3nc4c(c(=O)[nH]3)CN(C(=O)[C@H](O)c3cccc(C(F)(F)F)c3)CCC4)CC2)c1)C(C)C [59-14] : pIC50 on human TRPV4 (Homo sapiens, UniProt Q9HBA0) = > 7.30

Entry O=C([C@H](O)c1cccc(-c2ccnc(C(F)(F)F)c2)c1)N1CCCc2nc(C3(c4ccccc4)CC3)[nH]c(=O)c2C1 [49-17] : pIC50 on human TRPV4 (Homo sapiens, UniProt Q9HBA0) = > 7.30

Entry O=C([C@H](O)c1cccc(-c2cc(Cl)cc(OC(F)(F)F)c2)c1)N1CCCc2nc(C3(c4ccccc4)CC3)[nH]c(=O)c2C1 [49-34] : pIC50 on human TRPV4 (Homo sapiens, UniProt Q9HBA0) = > 7.30
